From: PubChem BioAssay

Study system: Potassium voltage-gated channel subfamily KQT member 2 (Rattus norvegicus) (UniProt O88943)
Sequence (O88943 whole entry, looked up): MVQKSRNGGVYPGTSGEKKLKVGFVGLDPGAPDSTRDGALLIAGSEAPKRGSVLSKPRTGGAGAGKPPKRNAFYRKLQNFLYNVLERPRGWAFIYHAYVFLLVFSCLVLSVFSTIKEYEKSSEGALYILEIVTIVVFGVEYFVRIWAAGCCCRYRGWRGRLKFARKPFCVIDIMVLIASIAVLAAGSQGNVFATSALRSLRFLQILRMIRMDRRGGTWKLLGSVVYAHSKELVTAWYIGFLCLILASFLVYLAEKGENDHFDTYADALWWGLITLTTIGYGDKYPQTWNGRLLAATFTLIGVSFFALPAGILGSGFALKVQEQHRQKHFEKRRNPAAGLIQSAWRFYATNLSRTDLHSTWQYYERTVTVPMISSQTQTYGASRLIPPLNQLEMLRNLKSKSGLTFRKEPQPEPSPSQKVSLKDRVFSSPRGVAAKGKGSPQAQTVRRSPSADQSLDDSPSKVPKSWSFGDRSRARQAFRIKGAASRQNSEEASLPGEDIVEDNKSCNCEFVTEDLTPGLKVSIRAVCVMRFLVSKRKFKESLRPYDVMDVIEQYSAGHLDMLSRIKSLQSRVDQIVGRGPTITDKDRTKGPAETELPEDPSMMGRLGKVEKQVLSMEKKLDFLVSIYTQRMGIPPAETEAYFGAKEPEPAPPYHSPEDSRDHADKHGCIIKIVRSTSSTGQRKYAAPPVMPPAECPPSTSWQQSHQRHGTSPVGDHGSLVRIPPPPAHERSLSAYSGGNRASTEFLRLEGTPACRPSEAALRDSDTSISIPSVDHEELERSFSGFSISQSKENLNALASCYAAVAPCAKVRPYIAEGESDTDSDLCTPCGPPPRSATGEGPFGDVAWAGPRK
Protocol text: rat KCNQ2 channel potentiation, selectivity assay for KCNQ1 potentiator project, KCNQ2-CHO-K1 cells (AID 493009);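 also: assay conditions were tuned for KCNQ1 rather than KCNQ2 modulators; signal is max minus min fluorescence divided by baseline after thallium stimulus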
Protocol conditions: FluxOR thallium flux fluorescence, at 10 µM; hits give high values, scaled: buffer 0, activator control 100
Calls of active or inactive are those of the source.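 The calls were made as follows: active = mean duplicate potentiation above the buffer control mean plus 5 SD of buffer wells; inactive = the rest.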
Measured metric: potentiation

>>> df
                            smiles_record    result
0              NC(N)=N/N=C/c1ccccc1OC(F)F  inactive
1              Cc1cc(N=Cc2cc(Br)ccc2O)no1  inactive
2  O=C(Nc1nccs1)c1ccc(-c2ccc(F)c(Cl)c2)o1  inactive

====

Study system: Short transient receptor potential channel 4 (Mus musculus) (UniProt Q9QUQ5)
Sequence (Q9QUQ5 whole entry, looked up): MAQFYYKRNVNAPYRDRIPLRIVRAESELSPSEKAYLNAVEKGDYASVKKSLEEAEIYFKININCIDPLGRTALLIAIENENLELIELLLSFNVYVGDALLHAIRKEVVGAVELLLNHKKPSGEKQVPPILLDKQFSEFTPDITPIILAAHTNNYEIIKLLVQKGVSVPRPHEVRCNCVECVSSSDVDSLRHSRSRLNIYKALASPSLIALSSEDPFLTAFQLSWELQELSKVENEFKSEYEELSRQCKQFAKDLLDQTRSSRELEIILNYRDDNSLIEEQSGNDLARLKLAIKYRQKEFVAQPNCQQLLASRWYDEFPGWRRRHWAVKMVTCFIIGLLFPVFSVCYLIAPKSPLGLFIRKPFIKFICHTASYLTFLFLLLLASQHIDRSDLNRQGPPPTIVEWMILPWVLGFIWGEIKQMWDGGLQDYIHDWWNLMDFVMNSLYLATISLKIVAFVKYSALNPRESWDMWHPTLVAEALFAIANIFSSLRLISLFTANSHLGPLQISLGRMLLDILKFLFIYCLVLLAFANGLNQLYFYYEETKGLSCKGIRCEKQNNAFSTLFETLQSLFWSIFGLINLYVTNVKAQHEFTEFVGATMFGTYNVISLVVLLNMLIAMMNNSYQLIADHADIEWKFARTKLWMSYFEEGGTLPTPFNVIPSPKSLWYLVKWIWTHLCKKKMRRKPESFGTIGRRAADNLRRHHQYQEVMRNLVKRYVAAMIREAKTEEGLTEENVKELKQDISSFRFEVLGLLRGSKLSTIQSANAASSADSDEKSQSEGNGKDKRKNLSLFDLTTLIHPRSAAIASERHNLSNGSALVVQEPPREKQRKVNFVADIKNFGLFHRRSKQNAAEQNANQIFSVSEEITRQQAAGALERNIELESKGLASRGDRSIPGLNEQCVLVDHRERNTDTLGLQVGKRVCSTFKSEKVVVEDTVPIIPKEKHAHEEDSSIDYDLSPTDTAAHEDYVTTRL
Protocol text: inhibitors of mouse TRPC4 channel, confirmation, cell-based, Fluo4, HEK293 TRPC4beta/mu-opioid (AID 2636)
Protocol conditions: DAMGO, Fluo4 calcium flux, at 10 µM
Active and inactive are the calls of the source.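 The calls were made as follows: active = calcium signal cut by more than 3 SD below the full-agonist control yet still positive, in both repeats and the earlier primary screen; inactive = the rest.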
Possible outcomes: active, inactive

In [3]: df
Out[3]:
                                   compound  label_class
0  CCN(CCCNS(=O)(=O)c1cc(-c2cc(C)no2)ccc1C)Cc1ccccc1     inactive
1  COc1cc(OC)cc(C(=O)NC(=S)NNC(=O)[C@H]2C[C@@H]2c2ccccc2)c1     inactive
2  Cc1onc(-c2ccccc2)c1C(=O)NNC(=S)NC(=O)c1ccc(Br)cc1     inactive
3  CN(C)CCCN(C(=O)c1ccc(S(=O)(=O)N(C)C2CCCCC2)cc1)c1nc2ccc(F)cc2s1     inactive
4  Cc1ccccc1C(=O)NNC(=S)NC(=O)c1ccc(Cl)cc1Cl     inactive
5  CN(C)CCN(C(=O)C1CCCCC1)c1nc2cc3c(cc2s1)OCO3       active
6  CC1CCCCN1S(=O)(=O)c1ccc(C(=O)N(CCCN(C)C)c2nc3ccc(Br)cc3s2)cc1 (centres undefined)     inactive
7  Cc1cccc(C)c1OCC(O)CN (centres undefined)     inactive
8  CC(=O)Nc1ccc(CN2CCCC(C(=O)c3ccc(C(F)(F)F)cc3)C2)cc1 (centres undefined)     inactive

====

Study system: Potassium voltage-gated channel subfamily KQT member 2 (Rattus norvegicus)
Protocol text: rat KCNQ2 channel potentiation, selectivity assay for KCNQ1 potentiator project, KCNQ2-CHO-K1 cells (AID 493009);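 also: assay conditions were tuned for KCNQ1 rather than KCNQ2 modulators; signal is max minus min fluorescence divided by baseline after thallium stimulus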
Protocol conditions: FluxOR thallium flux fluorescence, at 10 µM, scaled: buffer 0, activator control 100
The source made the active and inactive calls.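 The calls were made as follows: active = mean duplicate potentiation above the buffer control mean plus 5 SD of buffer wells; inactive = the rest.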
Possible outcomes: 1.0 (active), 0.0 (inactive)

>>> print(df.to_string())
                                   molecule  label_class
0  Oc1[nH]c2c(Cl)cc(Cl)cc2c1N=NC(=S)NCC1CCCO1 (stereo unspecified)          1.0
1               Cc1cc(NCc2ccccc2)nc2ccccc12          0.0
2   O=C(NC(=S)Nc1cccc(Cl)c1N1CCCCC1)c1cccs1          0.0
3      Cc1onc(-c2ccccc2Cl)c1C(=O)Nc1ccccc1O          0.0
4  COc1ccc2nc(/N=C/c3c(C)[nH]n(-c4ccc(C)cc4)c3=O)sc2c1          1.0
5  COc1ccc(CN2C(=O)C(C)S/C2=N/N=C/c2ccco2)cc1 (stereo unspecified)          0.0
